# CONDITION SUMMARY: 333.15 K; 25000 kPa; Liquid
OBSERVABLE: mass density (kg/m3)

compound=CCCCCCCn1cc[n+](C)c1.O=S(=O)([N-]S(=O)(=O)C(F)(F)F)C(F)(F)F observable="mass density" measurement=1333
compound=CCCCCCCCn1cc[n+](C)c1.O=S(=O)([N-]S(=O)(=O)C(F)(F)F)C(F)(F)F observable="mass density" measurement=1306
compound="CCn1cc[n+](C)c1.F[B-](F)(F)F [1-ethyl-3-methylimidazolium tetrafluoroborate]" observable="mass density" measurement=1284
compound=CCn1cc[n+](C)c1.O=S(=O)([N-]S(=O)(=O)C(F)(F)F)C(F)(F)F observable="mass density" measurement=1502

----------
# CONDITION SUMMARY: 333.15 K; 7500 kPa; Liquid
OBSERVABLE: mass density (kg/m3)

compound=CCCCCCCn1cc[n+](C)c1.O=S(=O)([N-]S(=O)(=O)C(F)(F)F)C(F)(F)F observable="mass density" measurement=1319
compound="CCn1cc[n+](C)c1.F[B-](F)(F)F [1-ethyl-3-methylimidazolium tetrafluoroborate]" observable="mass density" measurement=1275
compound=CCn1cc[n+](C)c1.O=S(=O)([N-]S(=O)(=O)C(F)(F)F)C(F)(F)F observable="mass density" measurement=1488
compound=CCCCCCCCn1cc[n+](C)c1.O=S(=O)([N-]S(=O)(=O)C(F)(F)F)C(F)(F)F observable="mass density" measurement=1292

----------
# CONDITION SUMMARY: 353.15 K; 3000 kPa; Liquid
OBSERVABLE: mass density (kg/m3)

compound=CCCCCCCn1cc[n+](C)c1.O=S(=O)([N-]S(=O)(=O)C(F)(F)F)C(F)(F)F observable="mass density" unit_annotation=kg/m3 measurement=1297
compound="CCn1cc[n+](C)c1.F[B-](F)(F)F [1-ethyl-3-methylimidazolium tetrafluoroborate]" observable="mass density" unit_annotation=kg/m3 measurement=1258
compound=CCn1cc[n+](C)c1.O=S(=O)([N-]S(=O)(=O)C(F)(F)F)C(F)(F)F observable="mass density" unit_annotation=kg/m3 measurement=1464
compound=CCCCCCCCn1cc[n+](C)c1.O=S(=O)([N-]S(=O)(=O)C(F)(F)F)C(F)(F)F observable="mass density" unit_annotation=kg/m3 measurement=1271

----------
# CONDITION SUMMARY: 293.15 K; 3000 kPa; Liquid
OBSERVABLE: mass density (kg/m3)

compound="CCn1cc[n+](C)c1.F[B-](F)(F)F [1-ethyl-3-methylimidazolium tetrafluoroborate]" unit_annotation=kg/m3 measurement=1306
compound=CCn1cc[n+](C)c1.O=S(=O)([N-]S(=O)(=O)C(F)(F)F)C(F)(F)F unit_annotation=kg/m3 measurement=1528
compound=CCCCCCCn1cc[n+](C)c1.O=S(=O)([N-]S(=O)(=O)C(F)(F)F)C(F)(F)F unit_annotation=kg/m3 measurement=1354
compound=CCCCCCCCn1cc[n+](C)c1.O=S(=O)([N-]S(=O)(=O)C(F)(F)F)C(F)(F)F unit_annotation=kg/m3 measurement=1330

----------
# CONDITION SUMMARY: 393.15 K; 10000 kPa; Liquid
OBSERVABLE: mass density (kg/m3)

molecule="CCn1cc[n+](C)c1.F[B-](F)(F)F [1-ethyl-3-methylimidazolium tetrafluoroborate]" observable="mass density" measurement=1235
molecule=CCCCCCCn1cc[n+](C)c1.O=S(=O)([N-]S(=O)(=O)C(F)(F)F)C(F)(F)F observable="mass density" measurement=1271
molecule=CCCCCCCCn1cc[n+](C)c1.O=S(=O)([N-]S(=O)(=O)C(F)(F)F)C(F)(F)F observable="mass density" measurement=1246
molecule=CCn1cc[n+](C)c1.O=S(=O)([N-]S(=O)(=O)C(F)(F)F)C(F)(F)F observable="mass density" measurement=1433

----------
# CONDITION SUMMARY: 333.15 K; 1000 kPa; Liquid
Here, each record is paired with measured mass density data.
OBSERVABLE: mass density (kg/m3)

compound=CCCCCCCn1cc[n+](C)c1.O=S(=O)([N-]S(=O)(=O)C(F)(F)F)C(F)(F)F unit_annotation=kg/m3 measurement=1314
compound=CCCCCCCCn1cc[n+](C)c1.O=S(=O)([N-]S(=O)(=O)C(F)(F)F)C(F)(F)F unit_annotation=kg/m3 measurement=1287
compound=CCn1cc[n+](C)c1.O=S(=O)([N-]S(=O)(=O)C(F)(F)F)C(F)(F)F unit_annotation=kg/m3 measurement=1483
compound="CCn1cc[n+](C)c1.F[B-](F)(F)F [1-ethyl-3-methylimidazolium tetrafluoroborate]" unit_annotation=kg/m3 measurement=1272

----------
mass density by entry:
# CONDITION SUMMARY: 333.15 K; 15000 kPa; Liquid
OBSERVABLE: mass density (kg/m3)

compound=CCCCCCCn1cc[n+](C)c1.O=S(=O)([N-]S(=O)(=O)C(F)(F)F)C(F)(F)F measurement=1325
compound=CCn1cc[n+](C)c1.O=S(=O)([N-]S(=O)(=O)C(F)(F)F)C(F)(F)F measurement=1494
compound=CCCCCCCCn1cc[n+](C)c1.O=S(=O)([N-]S(=O)(=O)C(F)(F)F)C(F)(F)F measurement=1298
compound="CCn1cc[n+](C)c1.F[B-](F)(F)F [1-ethyl-3-methylimidazolium tetrafluoroborate]" measurement=1279

----------
// mass density lookup, one value per entry
# CONDITION SUMMARY: 343.15 K; 4000 kPa; Liquid
OBSERVABLE: mass density (kg/m3)

compound=CCCCCCCCn1cc[n+](C)c1.O=S(=O)([N-]S(=O)(=O)C(F)(F)F)C(F)(F)F observable="mass density" measurement=1281
compound="CCn1cc[n+](C)c1.F[B-](F)(F)F [1-ethyl-3-methylimidazolium tetrafluoroborate]" observable="mass density" measurement=1266
compound=CCCCCCCn1cc[n+](C)c1.O=S(=O)([N-]S(=O)(=O)C(F)(F)F)C(F)(F)F observable="mass density" measurement=1307
compound=CCn1cc[n+](C)c1.O=S(=O)([N-]S(=O)(=O)C(F)(F)F)C(F)(F)F observable="mass density" measurement=1475

----------
In this section, each of the compounds is paired with its reported mass density.
# CONDITION SUMMARY: 353.15 K; 5000 kPa; Liquid
OBSERVABLE: mass density (kg/m3)

compound=CCCCCCCn1cc[n+](C)c1.O=S(=O)([N-]S(=O)(=O)C(F)(F)F)C(F)(F)F observable="mass density" measurement=1299
compound="CCn1cc[n+](C)c1.F[B-](F)(F)F [1-ethyl-3-methylimidazolium tetrafluoroborate]" observable="mass density" measurement=1259
compound=CCn1cc[n+](C)c1.O=S(=O)([N-]S(=O)(=O)C(F)(F)F)C(F)(F)F observable="mass density" measurement=1466
compound=CCCCCCCCn1cc[n+](C)c1.O=S(=O)([N-]S(=O)(=O)C(F)(F)F)C(F)(F)F observable="mass density" measurement=1273

----------
# CONDITION SUMMARY: 303.15 K; 100 kPa; Liquid
OBSERVABLE: mass density (kg/m3)

molecule="CCn1cc[n+](C)c1.F[B-](F)(F)F [1-ethyl-3-methylimidazolium tetrafluoroborate]" observable="mass density" measurement=1296
molecule=CCn1cc[n+](C)c1.O=S(=O)([N-]S(=O)(=O)C(F)(F)F)C(F)(F)F observable="mass density" measurement=1514
molecule=CCCCCCCn1cc[n+](C)c1.O=S(=O)([N-]S(=O)(=O)C(F)(F)F)C(F)(F)F observable="mass density" measurement=1342
molecule=CCCCCCCCn1cc[n+](C)c1.O=S(=O)([N-]S(=O)(=O)C(F)(F)F)C(F)(F)F observable="mass density" measurement=1315

----------
# CONDITION SUMMARY: 293.15 K; 20000 kPa; Liquid
Numbers after ± are expanded uncertainties.
Measured mass density values are reported for all entries that follow.
OBSERVABLE: mass density

compound=CCCCCCCn1cc[n+](C)c1.O=S(=O)([N-]S(=O)(=O)C(F)(F)F)C(F)(F)F observable="mass density" measurement="1366 ± 5 kg/m3"
compound="CCn1cc[n+](C)c1.F[B-](F)(F)F [1-ethyl-3-methylimidazolium tetrafluoroborate]" observable="mass density" measurement="1313 ± 4 kg/m3"
compound=CCn1cc[n+](C)c1.O=S(=O)([N-]S(=O)(=O)C(F)(F)F)C(F)(F)F observable="mass density" measurement="1540 ± 7 kg/m3"
compound=CCCCCCCCn1cc[n+](C)c1.O=S(=O)([N-]S(=O)(=O)C(F)(F)F)C(F)(F)F observable="mass density" measurement="1341 ± 5 kg/m3"
